Target: feline FcRn (FCN-F82W3, Acrobiosystems) (feline)
Test: SPR Carterra, IgG coupled, pH 6.0
Consider the following binders; for each one, report its koff.
Respond with the bare value in s⁻¹.

Input line: Data request, read-out koff, for anti-NGF feline IgG1a, Fc variant S428L, T286E (antibody, part only; not given: anti-NGF variable domains, not shown: another chain or arm of the molecule; small tags and cut ends) Fc: PPEMLGGPSIFIFPPKPKDTLSISRTPEVTCLVVDLGPDDSDVQITWFVDNTQVYEAKTSPREEQFNSTYRVVSVLPILHQDWLKGKEFKCKVNSKSLPSPIERTISKAKGQPHEPQVYVLPPAQEELSRNKVSVTCLIKSFHPPDIAVEWEITGQPEPENNYRTTPPQLDSDGTYFVYSKLSVDRSHWQRGNTYTCSVLHEALHSHHTQKSLTQSPGK
Output line: 0.00987

Input line: Data request, read-out koff, for anti-NGF feline IgG1a, Fc variant R301L, E380V, T437L (antibody, part only; not given: anti-NGF variable domains, light chain, not shown: another chain or arm of the molecule; small tags and cut ends) Fc: PPEMLGGPSIFIFPPKPKDTLSISRTPEVTCLVVDLGPDDSDVQITWFVDNTQVYTAKTSPREEQFNSTYLVVSVLPILHQDWLKGKEFKCKVNSKSLPSPIERTISKAKGQPHEPQVYVLPPAQEELSRNKVSVTCLIKSFHPPDIAVVWEITGQPEPENNYRTTPPQLDSDGTYFVYSKLSVDRSHWQRGNTYTCSVSHEALHSHHLQKSLTQSPGK
Output line: 0.0123

Input line: Data request, read-out koff, for anti-NGF feline IgG1a, Fc variant S434Y, L309E (antibody, part only; not given: Anti-NGF variable domains, not shown: another chain or arm of the molecule; small tags and cut ends) Fc: PPEMLGGPSIFIFPPKPKDTLSISRTPEVTCLVVDLGPDDSDVQITWFVDNTQVYTAKTSPREEQFNSTYRVVSVLPIEHQDWLKGKEFKCKVNSKSLPSPIERTISKAKGQPHEPQVYVLPPAQEELSRNKVSVTCLIKSFHPPDIAVEWEITGQPEPENNYRTTPPQLDSDGTYFVYSKLSVDRSHWQRGNTYTCSVSHEALHYHHTQKSLTQSPGK
Output line: 0.00458
